tested target: c-Met (cytoplasmic domain) (Homo sapiens)
Construct: 10 ng/mL c-Met (cytoplasmic domain, Invitrogen Corporation #PV3143); purchased Invitrogen Corporation PV3143
protocol summary: c-Met Kinase Assay (same methods as for ALK, with modifications)
Assay type: biochemical
run conditions: c-Met kinase inhibition, 1 μM ATP (Km level); read-out: cMet Activity
pIC50: −log10 of the molar value.
// pIC50 lookup, one value per entry

CNC(=O)c1ccccc1Nc1nc(Nc2ccc3c(c2)C2CCC3CN(C(C)=O)C2)ncc1Cl (stereo not shown) | > 7.00
COc1cc(N2CCOCC2)ccc1Nc1nc(Nc2ccc3c(c2)CCN(C[C@H](O)C(F)(F)F)CC3)ncc1Cl | < 5.00
Cn1ccnc1-c1ccccc1Nc1nc(Nc2ccc3c(c2)C(C)(C)CCC(=O)N3)ncc1Cl | 6.00 to 7.00
CCN1CCN(CC)c2cc(Nc3ncc(Cl)c(Nc4ccccc4C(=O)NC)n3)ccc2C1=O | > 7.00
COCCN1CCc2cc(Nc3ncc(Cl)c(N[C@@H]4CCCC[C@H]4NS(C)(=O)=O)n3)c(OC)cc2CC1 | < 5.00

Problem: Entry CCN1C(=O)OCCc2ccc(Nc3ncc(Cl)c(Nc4ccccc4C(=O)NC)n3)cc21 needs its pIC50 filled in; supply it.
Result: 6.00 to 7.00

Problem: Entry CC(=O)N1CC2CCC(C1)c1cc(Nc3ncc(Cl)c(N[C@@H]4CCCC[C@H]4NS(C)(=O)=O)n3)ccc12 (stereo partly shown) needs its pIC50 filled in; supply it.
Result: 6.00 to 7.00

Problem: Entry CCN1CCc2ccc(Nc3ncc(C#N)c(Nc4ccccc4C(=O)NC)n3)cc2CC1 needs its pIC50 filled in; supply it.
Result: 6.00 to 7.00

Problem: Entry CC(=O)N[C@@H]1CCCC[C@H]1Nc1nc(Nc2ccc3c(c2)C(C)(C)CCC(=O)N3)ncc1Cl needs its pIC50 filled in; supply it.
Result: 6.00 to 7.00

====

tested target: baculovirus-expressed ALK (Homo sapiens)
Construct: host or cells: baculovirus expression system
Sequence (Q9UM73 19-1620): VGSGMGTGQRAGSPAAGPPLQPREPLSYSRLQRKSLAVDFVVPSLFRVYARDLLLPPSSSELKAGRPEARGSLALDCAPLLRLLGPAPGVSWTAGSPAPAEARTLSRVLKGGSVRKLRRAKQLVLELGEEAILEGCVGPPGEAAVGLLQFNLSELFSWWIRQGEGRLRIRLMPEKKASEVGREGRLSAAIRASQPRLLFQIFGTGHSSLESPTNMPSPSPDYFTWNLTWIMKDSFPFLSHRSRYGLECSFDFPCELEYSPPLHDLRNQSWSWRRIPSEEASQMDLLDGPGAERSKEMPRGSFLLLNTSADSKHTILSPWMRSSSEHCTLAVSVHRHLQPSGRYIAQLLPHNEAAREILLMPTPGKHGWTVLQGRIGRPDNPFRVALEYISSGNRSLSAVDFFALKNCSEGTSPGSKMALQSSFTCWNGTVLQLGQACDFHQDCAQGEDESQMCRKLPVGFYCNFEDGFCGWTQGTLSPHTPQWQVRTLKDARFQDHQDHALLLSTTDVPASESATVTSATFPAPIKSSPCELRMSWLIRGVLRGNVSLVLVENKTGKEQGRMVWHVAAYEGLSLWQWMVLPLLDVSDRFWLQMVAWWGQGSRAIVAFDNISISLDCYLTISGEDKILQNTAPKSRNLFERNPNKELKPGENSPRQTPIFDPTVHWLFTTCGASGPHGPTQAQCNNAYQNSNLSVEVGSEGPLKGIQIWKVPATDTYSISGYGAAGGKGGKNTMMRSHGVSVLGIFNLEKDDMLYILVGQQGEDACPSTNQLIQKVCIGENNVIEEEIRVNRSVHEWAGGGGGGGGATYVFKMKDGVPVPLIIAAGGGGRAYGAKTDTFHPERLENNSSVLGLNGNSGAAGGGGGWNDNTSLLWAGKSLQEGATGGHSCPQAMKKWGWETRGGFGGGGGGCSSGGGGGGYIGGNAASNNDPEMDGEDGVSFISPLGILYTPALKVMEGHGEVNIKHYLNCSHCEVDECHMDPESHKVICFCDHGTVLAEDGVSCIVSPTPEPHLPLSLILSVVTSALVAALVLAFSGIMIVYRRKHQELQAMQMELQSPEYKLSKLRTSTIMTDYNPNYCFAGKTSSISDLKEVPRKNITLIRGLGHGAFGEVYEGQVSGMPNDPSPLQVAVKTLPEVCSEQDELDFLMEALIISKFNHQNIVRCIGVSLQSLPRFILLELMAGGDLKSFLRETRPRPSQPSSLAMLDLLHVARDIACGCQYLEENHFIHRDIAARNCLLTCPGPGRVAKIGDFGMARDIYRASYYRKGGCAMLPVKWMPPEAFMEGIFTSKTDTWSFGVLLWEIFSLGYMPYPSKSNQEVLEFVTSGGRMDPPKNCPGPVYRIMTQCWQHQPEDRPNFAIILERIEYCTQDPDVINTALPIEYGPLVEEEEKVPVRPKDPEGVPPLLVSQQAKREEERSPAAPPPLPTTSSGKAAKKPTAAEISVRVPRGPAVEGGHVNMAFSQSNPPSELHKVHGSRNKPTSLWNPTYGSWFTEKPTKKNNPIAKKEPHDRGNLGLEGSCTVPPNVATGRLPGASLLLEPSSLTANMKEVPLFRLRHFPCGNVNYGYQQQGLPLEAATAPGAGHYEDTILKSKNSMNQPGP
protocol summary: ALK Kinase Assay (ELISA-type, time-resolved fluorescence)
Assay type: biochemical
run conditions: ALK kinase inhibition, 1 μM ATP (Km level); read-out: ALK Activity
// IC50 lookup, one value per entry

COCCN1CCN(C)c2ccc(Nc3ncc(Cl)c(Nc4ccccc4NS(C)(=O)=O)n3)cc2C1 [Example 429] | < 100 nM
CC(C)(F)CN1CCc2ccc(Nc3ncc(Cl)c(N[C@@H]4CCCC[C@H]4NS(C)(=O)=O)n3)cc2CC1 [Example 40] | < 100 nM
CN1CCNCc2cc(Nc3ncc(Cl)c(Nc4ccccc4NS(C)(=O)=O)n3)ccc21 [Example 421] | < 100 nM
CCN1C(=O)CCCc2c1ccc(Nc1ncc(Cl)c(N[C@@H]3CCCC[C@H]3NS(C)(=O)=O)n1)c2OC [Example 120] | < 100 nM
CNC(=O)c1ccccc1Nc1nc(Nc2cc3c(cc2OC)CCN(CC(=O)N(C)C)CC3)ncc1Br [Example 376] | < 100 nM

Problem: Entry CCN1C(=O)CCCc2cc(Nc3ncc(Cl)c(Nc4c(F)cccc4C(=O)NC)n3)c(OC)cc21 [Example 138] needs its IC50 filled in; supply it.
Result: < 100 nM

Problem: Entry CCN1C2CCC1c1cc(Nc3ncc(Cl)c(N[C@@H]4CCCC[C@H]4NS(C)(=O)=O)n3)ccc1C2 (stereo partly shown) [Example 71] needs its IC50 filled in; supply it.
Result: < 100 nM

Problem: Entry CNC(=O)c1ccccc1Nc1nc(Nc2ccc3c(c2)CCOCC3)ncc1Cl [Example 51] needs its IC50 filled in; supply it.
Result: < 100 nM

Problem: Entry CCN1C2CCC1c1c(ccc(Nc3ncc(Cl)c(Nc4ccccc4C(=O)NC)n3)c1Cl)C2 (stereo not shown) [Example 73] needs its IC50 filled in; supply it.
Result: < 100 nM

Problem: Entry CCOC(=O)N1C2CCC1c1cc(Nc3ncc(Cl)c(Nc4ccccc4C(=O)NC)n3)ccc1C2 (stereo not shown) [Example 67] needs its IC50 filled in; supply it.
Result: < 100 nM

Problem: Entry CC(C)N1CC2CCC(C1)c1cc(Nc3ncc(Cl)c(N[C@@H]4CCCC[C@H]4NS(C)(=O)=O)n3)ccc12 (stereo partly shown) [Example 296] needs its IC50 filled in; supply it.
Result: < 100 nM

Problem: Entry CNC(=O)c1ccccc1Nc1nc(Nc2ccc3c(c2)CCCNC3=O)ncc1Cl [Example 11] needs its IC50 filled in; supply it.
Result: < 100 nM

Problem: Entry COc1cc2c(cc1Nc1ncc(Cl)c(Nc3ccc(N4CCOCC4)cc3OC)n1)N(C)CCN(C[C@@H](O)C(F)(F)F)C2 [Example 496] needs its IC50 filled in; supply it.
Result: < 100 nM

Problem: Entry CNC(=O)c1ccccc1Nc1nc(Nc2cc3c(cc2OC)C(=O)N(C)CCC3)ncc1Cl [Example 107] needs its IC50 filled in; supply it.
Result: < 100 nM

Problem: Entry COCCN1CCc2ccc(Nc3ncc(Cl)c(N[C@@H]4CCCC[C@H]4NS(=O)(=O)C4CC4)n3)cc2CC1 [Example 454] needs its IC50 filled in; supply it.
Result: 100 to 1000 nM

Problem: Entry COCCN1CCc2cc(Nc3ncc(Cl)c(Nc4cc(Cl)ccc4OC)n3)c(OC)cc2CC1 [Example 243] needs its IC50 filled in; supply it.
Result: < 100 nM

Problem: Entry CCN1CCc2ccc(Nc3ncc(Cl)c(NC4CCCCNC4=O)n3)cc2CC1 (stereo not shown) [Example 166] needs its IC50 filled in; supply it.
Result: < 100 nM

Problem: Entry CCN1CCc2ccc(Nc3ncc(Cl)c(NC(C)(C)CNS(C)(=O)=O)n3)cc2CC1 [Example 307] needs its IC50 filled in; supply it.
Result: 1000 to 10000 nM

Problem: Entry CNC(=O)c1ccccc1Nc1nc(Nc2ccc3c(c2)CCN(CC(F)(F)F)CC3)ncc1Cl [Example 41] needs its IC50 filled in; supply it.
Result: < 100 nM

Problem: Entry CCN1C2CCC1c1cc(Nc3ncc(Cl)c(Nc4ccccc4NS(C)(=O)=O)n3)ccc1C2 (stereo not shown) [Example 72] needs its IC50 filled in; supply it.
Result: < 100 nM

Problem: Entry CCN1CCc2ccc(Nc3ncc(Cl)c(Nc4cccc(N5CCOCC5)c4)n3)cc2CC1 [Example 444] needs its IC50 filled in; supply it.
Result: < 100 nM

Problem: Entry CCN1CCc2ccc(Nc3ncc(Cl)c(N[C@H]4CCC[C@H]4C(N)=O)n3)cc2CC1 (relative stereo) [Example 176] needs its IC50 filled in; supply it.
Result: 100 to 1000 nM

Problem: Entry CNC(=O)c1ccccc1Nc1nc(Nc2ccc3c(c2)CCN(C[C@H](O)C(F)(F)F)CC3)ncc1Cl [Example 328] needs its IC50 filled in; supply it.
Result: < 100 nM

Problem: Entry CNC(=O)c1ccccc1Nc1nc(Nc2ccc3c(c2)N(C)C(=O)CCC3)ncc1Cl [Example 108] needs its IC50 filled in; supply it.
Result: < 100 nM

Problem: Entry CCN1CCc2ccc(Nc3ncc(Cl)c(Nc4ccccc4C(=O)NC)n3)c(OC)c2CC1 [Example 234] needs its IC50 filled in; supply it.
Result: < 100 nM

Problem: Entry CNC(=O)c1ccccc1Nc1nc(Nc2ccc3c(c2)C2CNCC3O2)ncc1Cl (stereo not shown) [Example 65] needs its IC50 filled in; supply it.
Result: 100 to 1000 nM

====

// IC50 lookup, one value per entry
tested target: c-Met (cytoplasmic domain) (Homo sapiens, UniProt P08581)
Construct: 10 ng/mL c-Met (cytoplasmic domain, Invitrogen Corporation #PV3143); purchased Invitrogen Corporation PV3143
Sequence (P08581 956-1390 limits assumed): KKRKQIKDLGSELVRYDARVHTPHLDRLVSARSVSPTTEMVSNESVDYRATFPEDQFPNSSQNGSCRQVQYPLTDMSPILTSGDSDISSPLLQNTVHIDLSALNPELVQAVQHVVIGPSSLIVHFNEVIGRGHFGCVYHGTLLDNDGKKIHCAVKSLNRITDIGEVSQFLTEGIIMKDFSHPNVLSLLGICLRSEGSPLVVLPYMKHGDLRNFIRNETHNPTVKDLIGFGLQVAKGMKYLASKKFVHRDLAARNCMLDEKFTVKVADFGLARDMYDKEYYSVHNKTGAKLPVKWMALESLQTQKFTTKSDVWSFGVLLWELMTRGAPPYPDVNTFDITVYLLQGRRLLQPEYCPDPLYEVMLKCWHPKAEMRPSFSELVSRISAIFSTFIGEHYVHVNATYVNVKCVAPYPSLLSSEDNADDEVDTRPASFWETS
protocol summary: c-Met Kinase Assay (same methods as for ALK, with modifications)
Type: biochemical
run conditions: c-Met kinase inhibition, 1 μM ATP (Km level); read-out: cMet Activity
Protocol: Briefly, each 96-well plate was coated with 100 μL/well of 10 μg/mL substrate (phospholipase C-γ) in Tris-buffered saline (TBS). […] The reaction was initiated by adding enzyme (30 ng/ml ALK) and was allowed to proceed at 37° C. for 15 minutes. Detection of the phosphorylated product was performed by adding 100 μl/well of Eu-N1 labeled PT66 antibody (Perkin Elmer # AD0041). Data analysis was performed using ActivityBase (IDBS, Guilford, UK). […]

Completed entries (count: 5):
CN1CCN(S(C)(=O)=O)Cc2ccc(Nc3ncc(Cl)c(N[C@@H]4CCCC[C@H]4NS(C)(=O)=O)n3)cc21 | 1 to 10 µM
CCN1C(=O)CCCc2cc(Nc3ncc(Cl)c(Nc4ccc(N5CCOCC5)cc4OC)n3)c(OC)cc21 | > 10 µM
COCCN1CCc2ccc(Nc3ncc(Cl)c(Nc4ccccc4OC)n3)cc2CC1 | 1 to 10 µM
CNC(=O)c1ccccc1Nc1nc(Nc2ccc3c(c2)NCCN(C)C3=O)ncc1Cl | < 0.1 µM
CCN1C(=O)CCCc2c1ccc(Nc1ncc(Cl)c(NC3C4C=CC(C4)C3C(N)=O)n1)c2OC (stereo not shown) | > 10 µM

Problem: Entry C#CCN1CCN(C)c2cc(Nc3ncc(Cl)c(Nc4ccccc4C(=O)N(C)CC#C)n3)ccc2C1 needs its IC50 filled in; supply it.
Result: < 0.1 µM

Problem: Entry CCN1C(=O)CCCc2c1ccc(Nc1ncc(Cl)c(N[C@@H]3CCC[C@H]3NS(C)(=O)=O)n1)c2OC (relative stereo) needs its IC50 filled in; supply it.
Result: > 10 µM

Where do these numbers come from? They come from patent US8148391B2.
